Cited source: patent US9422238B2

ASSAY COMMENT: Aggregation tendency by dynamic light scattering (DLS)
Assay type: physicochemical
STATED CONDITIONS: 1 μM, 1% DMSO, potassium phosphate buffer 5 mM pH 7.4
Listed here are compounds together with their documented DLS count rate (kcps).
MEASUREMENT KIND: DLS count rate (kcps)

1) CCCCCCCCn1cc(CN(CC)CC)c2cc(-c3cnc(N)nc3)ccc21; 24.5
2) CCCCCCCCn1c2c(c3cc(-c4cnc(N)nc4)ccc31)CN(C)CC2; 21.0
3) CCCCCCCCn1cc(CN(CC)CC)c2cc(-c3cncnc3)ccc21; 20.4
4) CCCCCCCCn1cc(CN(CC)CC)c2cc(-c3cccnc3)ccc21; 16.8
5) CCCCCCCCn1cc(CC(N)=O)c2cc(-c3cccc(C)c3)ccc21 [Cysmethynil, reference compound]; 22.6

----------
ASSAY COMMENT: physchem
STATED CONDITIONS: pH 7.4, aqueous buffer, kinetic from dmso stock
MEASUREMENT KIND: solubility

1. CCCCCCCCn1cc(CN(CC)CC)c2cc(-c3cnc(N)nc3)ccc21 [Compound 8-12]; ~65 µg/mL
2. CCCCCCCCn1c2c(c3cc(-c4cnc(N)nc4)ccc31)CN(C)CC2 [Compound 305]; 20 µg/mL

----------
ASSAY COMMENT: Pharmacokinetic study, IP
Format: in vivo, mice
STATED CONDITIONS: female, mouse, plasma; Balb/c mice, 10 mg/kg IP
MEASUREMENT KIND: Tmax (min)

1) CCCCCCCCn1cc(CN(CC)CC)c2cc(-c3cnc(N)nc3)ccc21; 15

----------
ASSAY COMMENT: Pharmacokinetic study, IP
Format: in vivo, mice
STATED CONDITIONS: female, mouse, plasma; Balb/c mice, 100 mg/kg IP
MEASUREMENT KIND: Tmax

1. CCCCCCCCn1cc(CC(N)=O)c2cc(-c3cccc(C)c3)ccc21 [Cysmethynil, reference compound]; 45 min

----------
ASSAY COMMENT: Pharmacokinetic study, IP
Assay type: in vivo, mice
STATED CONDITIONS: female, mouse, plasma; Balb/c mice, 20 mg/kg IP
MEASUREMENT KIND: Tmax (min)

1. CCCCCCCCn1cc(CC(N)=O)c2cc(-c3cccc(C)c3)ccc21 [Cysmethynil, reference compound]; 45

----------
System: HepG2, MIA PACA II, MDA-MB-231 and PC3 cells
ASSAY COMMENT: Cell viability on panel of 4 malignant cell lines
Assay type: cell-based
STATED CONDITIONS: Homo sapiens, MDA-MB-231, PC3, read-out: IC50 values, range over the malignant cell lines
MEASUREMENT KIND: IC50

1. CCCCCCCCn1cc(CN(CC)CC)c2cc(-c3cnc(N)nc3)ccc21 [Compound 8-12]; 1.6 to 2.6 µM

----------
# solubility at 3 h values compiled below
ASSAY COMMENT: physchem
STATED CONDITIONS: pH 7.4, aqueous buffer, kinetic from dmso stock
Description: The turbid solution was delivered to the filter plate, agitated for a specific time period and then filtered. The concentration of dissolved compound in the filtrate was determined by uv spectroscopy and referred to pre-constructed calibration curves for solubility determination. Determination of aqueous solubility was carried out on Multiscreen® Solubility filter plates (Millipore-MSSLBPC10) from Millipore Corporation (MA, USA). The protocol (PC2445EN00, Millipore Corporation) was followed. […]
MEASUREMENT KIND: solubility at 3 h (µM)

1. CCCCCCCCn1cc(CN(CC)CC)c2cc(-c3cnc(N)nc3)ccc21 [Compound 8-12]; 166
2. CCCCCCCCn1c2c(c3cc(-c4cnc(N)nc4)ccc31)CN(C)CC2 [Compound 305]; 49.5

----------
Property: pIC50; scope: individual molecules
SYSTEM NAME: Isoprenylcysteine carboxyl methyltransferase (Icmt) (Homo sapiens, UniProt O60725)
Construct: made in house; host or cells: Sf9 (Spodoptera frugiperda) insect cells; membrane preparation provided by Prof PJ Casey (Duke University / Duke-NUS)
Sequence (O60725 whole entry, species assumed): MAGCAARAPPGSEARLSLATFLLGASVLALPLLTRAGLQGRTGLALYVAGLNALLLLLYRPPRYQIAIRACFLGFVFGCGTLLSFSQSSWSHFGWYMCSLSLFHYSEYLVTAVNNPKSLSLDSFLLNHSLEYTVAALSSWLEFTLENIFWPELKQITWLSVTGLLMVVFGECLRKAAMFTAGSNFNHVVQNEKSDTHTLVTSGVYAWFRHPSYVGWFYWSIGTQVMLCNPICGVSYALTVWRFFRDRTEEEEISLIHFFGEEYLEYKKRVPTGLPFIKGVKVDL
ASSAY COMMENT: Icmt inhibition, scintillation proximity assay with BFC and [3H]SAM
Type: biochemical
STATED CONDITIONS: further testing; mean (SD); read-out: IC50 Icmt
pIC50: −log10 of the molar value.
MEASUREMENT KIND: pIC50

1) CCCCCCCCn1cc(CN(CC)CC)c2cc(-c3cncnc3)ccc21; 5.80
2) CCCCCCCCn1cc(CN(CC)CC)c2cc(-c3cnc(N)nc3)ccc21; 6.07
3) CCCCCCCCn1cc(CC(N)=O)c2cc(-c3cccc(C)c3)ccc21 [Cysmethynil, reference compound]; 5.72

----------
ASSAY COMMENT: Pharmacokinetic study, IP
Assay type: in vivo, mice
STATED CONDITIONS: female, Balb/c, mouse, plasma, ip, 20 mg/kg, Balb/c mice, 20 mg/kg IP; read-out: T1/2 (converted)
MEASUREMENT KIND: half-life (h)

1) CCCCCCCCn1cc(CC(N)=O)c2cc(-c3cccc(C)c3)ccc21 [Cysmethynil, reference compound]; 1.6

----------
ASSAY COMMENT: Pharmacokinetic study, IP
Type: in vivo, mice
STATED CONDITIONS: female, mouse, plasma; Balb/c mice, 25 mg/kg IP
MEASUREMENT KIND: Tmax (min)

1. CCCCCCCCn1cc(CN(CC)CC)c2cc(-c3cnc(N)nc3)ccc21 [Compound 8-12]; 45

----------
Entries and their pIC50 values follow.
SYSTEM NAME: Isoprenylcysteine carboxyl methyltransferase (Icmt) (Homo sapiens)
Construct: made in house; host or cells: Sf9 (Spodoptera frugiperda) insect cells; membrane preparation provided by Prof PJ Casey (Duke University / Duke-NUS)
ASSAY COMMENT: Icmt inhibition, scintillation proximity assay with BFC and [3H]SAM
Assay type: biochemical
STATED CONDITIONS: Table 3; mean of two or more determinations (SD); read-out: IC50 Icmt
pIC50: −log10 of the molar value.
MEASUREMENT KIND: pIC50

1) CCCCCCCCn1cc(CN(CC)CC)c2cc(-c3ccc(S(=O)(=O)NC)cc3)ccc21; 5.77
2) CCCCCCCCn1cc(CN(CC)CC)c2cc(-c3cccc(F)c3)ccc21; 5.79
3) CCCCCCCCn1c2c(c3cc(-c4cccc(C)c4)ccc31)CN(C(C)C)CC2; 5.08
4) CCCCCCCCn1cc(CN(CC)CC)c2cc(-c3ccc(C#N)cc3)ccc21; 5.61
5) CCCCCCCCn1c2c(c3cc(-c4cnc(N)nc4)ccc31)CN(C)CC2; 5.48
6) CCCCCCCCn1cc(CN(CC)CC)c2cc(-c3ccccc3C(F)(F)F)ccc21; 5.89
7) CCCCCCCCn1cc(CN(CC)CC)c2cc(-c3cnccc3F)ccc21; 6.02
8) CCCCCCCCn1cc(CN(CC)CC)c2cc(-c3cncnc3)ccc21; 5.80
9) CCCCCCCCn1c2c(c3cc(-c4cccc(C)c4)ccc31)CN(C)CC2; 4.99
10) CCCCCCCCn1cc(CC(N)=O)c2cc(-c3cccc(C)c3)ccc21 [Cysmethynil, reference compound]; 5.74
11) CCCCCCCCn1cc(CN(CC)CC)c2cc(-c3ccc(S(C)(=O)=O)cc3)ccc21; 5.76
12) CCCCCCCCn1cc(CN(CC)CC)c2cc(-c3cnc(C#N)nc3)ccc21; 5.65
13) CCCCCCCCn1cc(CN(CC)CC)c2cc(-c3cccc(C)c3)ccc21; 5.66
14) CCCCCCCCn1cc(CN(CC)CC)c2cc(-c3cccc(O)c3)ccc21; 5.27
15) CCCCCCCCn1cc(CN(CC)CC)c2cc(-c3cccc(C(F)(F)F)c3)ccc21; 5.58
16) CCCCCCCCn1cc(CN(CC)CC)c2cc(-c3ccccc3F)ccc21; 5.59
17) CCCCCCCCn1cc(CN(CC)CC)c2cc(-c3cccnc3)ccc21; 5.76
18) CCCCCCCCn1cc(CN(CC)CC)c2cc(-c3cnc(N)nc3)ccc21; 6.11

----------
This listing pairs compounds with measured IC50.
Test system: PC3 Prostrate cancer cells
ASSAY COMMENT: Antiproliferative activity / cell viability (MTS, 72 h)
Format: cell-based, human
STATED CONDITIONS: Homo sapiens; Table 6; from earlier table; read-out: IC50 (μM) PC3
MEASUREMENT KIND: IC50 (µM)

1. CCCCCCCCn1cc(CC(N)=O)c2cc(-c3cccc(C)c3)ccc21 [Cysmethynil, reference compound]; 25.2
2. CCCCCCCCn1cc(CN(CC)CC)c2cc(-c3cnc(N)nc3)ccc21 [Compound 8-12]; 2.55
3. CCCCCCCCn1cc(CN(CC)CC)c2cc(-c3cccc(C)c3)ccc21 [Compound 8-1]; 6.31
4. CCCCCCCCn1cc(CN(CC)CC)c2cc(-c3ccc(S(C)(=O)=O)cc3)ccc21 [Compound 8-10]; 4.74

----------
ASSAY COMMENT: In vitro stability in rat liver microsomes
Type: in vitro ADME
STATED CONDITIONS: male, pooled rat liver microsomes, pH 7.4, NADPH, read-out: Intrinsic Clearance
microsomal CLint listing for selected molecules.
MEASUREMENT KIND: microsomal CLint

1. CCCCCCCCn1cc(CN(CC)CC)c2cc(-c3cnc(N)nc3)ccc21 [Compound 8-12]; 204 µL/min/mg
2. CCCCCCCCn1cc(CC(N)=O)c2cc(-c3cccc(C)c3)ccc21 [Cysmethynil, reference compound]; 53.6 µL/min/mg
3. CCCCCCCCn1c2c(c3cc(-c4cnc(N)nc4)ccc31)CN(C)CC2 [Compound 305]; 76.6 µL/min/mg
